Biological target: Recombinant human NK3 (hNK3) receptor (Homo sapiens)
Construct: expressed in transfected cells
Sequence (P29371 whole entry): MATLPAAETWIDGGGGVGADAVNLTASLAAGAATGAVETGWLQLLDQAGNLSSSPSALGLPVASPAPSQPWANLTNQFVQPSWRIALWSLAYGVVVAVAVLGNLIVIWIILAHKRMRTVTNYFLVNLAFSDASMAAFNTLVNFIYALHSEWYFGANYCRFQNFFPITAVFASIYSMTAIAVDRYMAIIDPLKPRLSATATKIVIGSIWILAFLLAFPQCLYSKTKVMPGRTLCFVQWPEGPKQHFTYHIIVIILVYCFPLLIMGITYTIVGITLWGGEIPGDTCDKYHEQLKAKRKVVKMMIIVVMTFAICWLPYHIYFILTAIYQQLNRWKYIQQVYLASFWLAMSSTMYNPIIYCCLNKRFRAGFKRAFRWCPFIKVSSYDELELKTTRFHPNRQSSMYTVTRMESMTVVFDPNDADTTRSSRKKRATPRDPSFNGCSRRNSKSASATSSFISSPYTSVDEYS
Experiment: NK3 receptor binding, [3H]SR142801 displacement, membrane preparations
Settings: second value of the cell NK1/NK3; read-out: pKi NK3 (converted)
Simple rule here: Ki less than 1 nM is fulfilled, otherwise not fulfilled.

1. Cc1ccccc1-c1cc(N2CC(F)(F)C[C@H]2CO)ncc1N(C)C(=O)C(C)(C)c1cc(C(F)(F)F)cc(C(F)(F)F)c1 ... not fulfilled
2. Cc1ccccc1-c1cc(N2CCC[C@H]2CO)ncc1N(C)C(=O)C(C)(C)c1cc(C(F)(F)F)cc(C(F)(F)F)c1 ... not fulfilled
3. Cc1ccccc1-c1cc(N2C[C@H](O)C[C@H]2CO)ncc1N(C)C(=O)C(C)(C)c1cc(C(F)(F)F)cc(C(F)(F)F)c1 ... fulfilled
4. COc1ccccc1-c1cc(N2CCC[C@H]2CO)ncc1N(C)C(=O)C(C)(C)c1cc(C(F)(F)F)cc(C(F)(F)F)c1 ... not fulfilled
5. Cc1cc(F)ccc1-c1cc(N2CC(=O)C[C@H]2CO)ncc1N(C)C(=O)C(C)(C)c1cc(C(F)(F)F)cc(C(F)(F)F)c1 ... not fulfilled
